Measured growth accompanies every entry in the list below.
Test system: M14 melanoma
experimental_details: NCI-60 one-dose screen, 48 h (100 = growth as untreated, 0 = no growth, -100 = all killed)
condition_set: 10 µM unless noted
This is part of a sample that, as a whole, favours compounds with a hit. Of some 83,000 tested, about 20% had one in any assay. Activity calls are given as the source filed them. How the source made its calls: active means growth percent below 10; inactive means the rest.

INSERT INTO assay_data (molecule, recorded_result) VALUES
  ('CN1CCN(c2ccc3nc(-c4ccc5nc(-c6ccc(OCCC(C)(C)C)cc6)[nH]c5c4)[nH]c3c2)CC1', '-11.2% (active)'),
  ('O=S(=O)(Nc1ccc(Cl)cc1Cl)c1ccc(-c2cnc(C3CC3)o2)cc1', '10.8% (inactive)'),
  ('C/C(=C(/c1ccc(O)cc1)c1ccc(OCCN(C)C)cc1)c1ccccc1', '65.1% (inactive)'),
  ('COc1ccc2nc3cc(Cl)ccc3c(N3CCN(c4ccnc(N5CCOCC5)n4)CC3)c2c1', '86.6% (inactive)'),
  ('O=C1/C(=C/c2ccccc2)CN(CCC(=O)N2C/C(=C\c3ccccc3)C(=O)/C(=C/c3ccccc3)C2)C/C1=C\c1ccccc1', '52.4% (inactive)'),
  ('CSc1ncnc2c1ncn2C1CCCO1 (stereo not given)', '109% (inactive)'),
  ('COC(=S)SCN(CSC(=S)OC)c1ccc(Cl)cc1', '77% (inactive)'),
  ('O=C(/C=C/c1ccc(Cl)cc1)/C=C/c1cc2ccccc2[nH]c1=O', '60.3% (inactive)'),
  ('O=C1/C(=C/c2ccc(Cl)cc2Cl)CN(S(=O)(=O)c2ccccc2)C/C1=C\c1ccc(Cl)cc1Cl', '20.5% (inactive)');

// below: growth requested for another molecule
Please report growth for the following molecule: Nc1ccc(Nc2nccc(-c3ccc4ccccc4c3)n2)cc1 26.8% (inactive)

###

System: SN12C renal
experimental_details: NCI-60 one-dose screen, 48 h
condition_set: 10 µM unless noted
This is part of a sample that, as a whole, favours compounds with a hit. Of some 83,000 tested, about 20% had one in any assay. The source made the active and inactive calls. The calls were made as follows: active = growth percent below 10; inactive = the rest.
API: response.call in active, inactive

For orientation, consider the following solved cases.
INSERT INTO results (molecule, qualitative_label) VALUES
  ('C[C@@H]1CC[C@@H]2[C@@H]1[C@H](OC(=O)/C=C/c1ccccc1)[C@]1(C3CCCCC3)C[C@@H](OC(=O)CO)[C@@]2(C)O1', 'inactive'),
  ('COc1cnc2c(c1)C(=O)c1c-2n(CCCN2CCCC2)c(=O)c2cc([N+](=O)[O-])ccc12', 'active'),
  ('CC(=O)Oc1cc2cnc3c4cc(OC(C)=O)c(OC(C)=O)cc4ccc3c2cc1OC(C)=O', 'inactive'),
  ('CCN(CC)CCC(=O)c1ccc(OC)c2ccccc12', 'inactive'),
  ('O=C(CO[N+](=O)[O-])Nc1ccc(C(=O)/C=C/c2ccc(Cl)cc2)cc1', 'inactive'),
  ('COc1ccc(OCC(=O)Nc2ccc(-c3nc4ccccc4s3)cc2C)cc1', 'inactive'),
  ('C=C(CN1CCN(c2cccc(C(F)(F)F)n2)CC1)c1ccc(C(=O)Nc2ccccc2N)cc1', 'inactive'),
  ('O=C1C=CC(Nc2ccccc2[N+](=O)[O-])C1Nc1ccccc1[N+](=O)[O-] (centres undefined)', 'inactive');

Test call for this molecule, please: CN(C)CC(=O)Nc1ccc(Cn2nnc3c2C(=O)c2nnn(Cc4ccc(NC(=O)CN(C)C)cc4)c2C3=O)cc1 active

src = PubChem BioAssay (NCI)
